assay: Clearance in rat at 3 mg/kg, iv and 10 mg/kg, po; assay type: ADME, organism-based; settings: in vivo
Let's look at some molecules and their measured log10 of clearance.
Answers are given as log10 of clearance in mL/min/kg.

> print(dat)
                                smilesentry  observedresult
1  Cc1cccc(C(=O)Nc2ccc(Cl)c(C(=O)Nc3cccnc3)c2)c1            1.48
2  Cc1ccc(NC(=O)c2cccc(C(F)(F)F)c2)cc1C(=O)Nc1cccnc1            1.20
3  Cc1ncc(NC(=O)c2cc(NC(=O)c3cccc(Cl)c3)ccc2Cl)s1            1.08
4  Cc1ncc(NC(=O)c2cc(NC(=O)c3cc(F)cc(C(F)(F)F)c3)ccc2Cl)s1            0.30
5  O=C(Nc1ccc(Cl)c(C(=O)Nc2cccnc2)c1)c1cccc(Cl)c1            1.20

Req: Return value of log10 of clearance for input "Cc1ncc(NC(=O)c2cc(NC(=O)c3cccc(C(F)(F)F)c3)ccc2Cl)s1" , no commentary.
Resp: 1.11

Req: Could you please provide reported log10 of clearance for "CC(C)c1ncc(NC(=O)c2cc(NC(=O)c3cccc(C(F)(F)F)c3)ccc2Cl)s1" ? Thanks!
Resp: 1.57

Req: Answer with the recorded log10 of clearance for the molecule listed here: "O=C(Nc1ccc(Cl)c(C(=O)Nc2cccnc2)c1)c1cccc(C(F)(F)F)c1"
Resp: 1.30

Req: Return log10 of clearance for the following molecule: "Cc1cc(C)cc(C(=O)Nc2ccc(Cl)c(C(=O)Nc3cnc(C)s3)c2)c1"
Resp: 1.15

Req: Hello, please tell me recorded log10 of clearance for this one: "O=C(Nc1ccc(Cl)c(C(=O)Nc2cncs2)c1)c1cccc(Cl)c1"
Resp: 1.73

Req: Identify measured log10 of clearance corresponding to "O=C(Nc1ccc(Cl)c(C(=O)Nc2cncs2)c1)c1cccc(C(F)(F)F)c1"
Resp: 1.76
